Test system: HOP-62 NSCLC
Assay: NCI tumour cell line growth inhibition, 48 h
compounds and their reported TGI

Study these solved cases before continuing.
TGI of Nc1ccc(S(=O)(=O)c2ccc(NC(=O)c3cccnc3)cc2)cc1 , assay on HOP-62 NSCLC, is > 100 µM

TGI of CSCC[C@H]1C(=O)N=C(N)N1C(=O)OCc1ccccc1 , assay on HOP-62 NSCLC, is > 100 µM

TGI of NC1=Nc2ccccc2Sc2nnc(-c3ccc(Cl)cc3)n21 , assay on HOP-62 NSCLC, is 85 µM

More entries:
TGI of CC(=O)c1cccc(NCn2nnc3ccccc32)c1 , assay on HOP-62 NSCLC, is > 100 µM

TGI of CCOC(=O)N1C2C=C(C)C(C3C(C)C(=O)N31)N(C(=O)c1ccccc1)O2 (centres undefined) , assay on HOP-62 NSCLC, is > 100 µM

TGI of CCN1C(=O)C(=Cc2ccc(-c3ccccc3)cc2)C(=O)N(CC)C1=S , assay on HOP-62 NSCLC, is > 100 µM

TGI of O=C1CC2C(=O)N(Cc3ccccc3)C1C(S(=O)(=O)c1ccccc1)C2S(=O)(=O)c1ccccc1 (centres undefined) , assay on HOP-62 NSCLC, is 36.9 µM

TGI of CC1CC2(CC[C@@H]1O)OCCO2 (some centres undefined) , assay on HOP-62 NSCLC, is > 100 µM

TGI of COC1OC(COC(=O)NCCCCC(=O)C(F)(F)F)C(O)C(O)C1O (centres undefined) , assay on HOP-62 NSCLC, is > 100 µM

TGI of CCN1C(=O)N(CC)C2C1NN=c1s/c(=C3\C(=O)N(C)c4ccccc43)c(=O)n12 (centres undefined) , assay on HOP-62 NSCLC, is > 100 µM

TGI of CCO[C@@H]1C2C=CC(C2)[C@H]1[N+](=O)[O-] (some centres undefined) , assay on HOP-62 NSCLC, is > 100 µM

TGI of O=C(CC(C(=O)c1cccs1)c1ccsc1)c1ccsc1 (centres undefined) , assay on HOP-62 NSCLC, is > 100 µM

TGI of N#Cc1ccccc1NC(=O)c1ccccc1 , assay on HOP-62 NSCLC, is > 100 µM

TGI of O=C(O)c1cc2c(s1)C(=O)c1sccc1C2=O , assay on HOP-62 NSCLC, is 11.6 µM

TGI of COc1ccc(-c2ccc(/C=N/n3c(COc4ccc(Cl)cc4)n[nH]c3=S)o2)c([N+](=O)[O-])c1 , assay on HOP-62 NSCLC, is 40.4 µM

---

System: TK-10 renal
Assay: NCI tumour cell line growth inhibition, 48 h
compounds and their reported TGI
Write the value in µM as a bare number.

According to the records, this compound Cn1cc(-c2ccc(CNc3cc(-c4cnc5cc(OCCCN6CCCC6)ccn45)ncn3)cc2)cn1 displays TGI of 39.1

Now, please, on to the next compound.
According to the records, this compound C1=NCCOCCN=Cc2ccccc2OCc2cccc(n2)COc2ccccc21 displays TGI of 20.4

---

Tested on: OVCAR-5 ovarian
Assay: NCI tumour cell line growth inhibition, 48 h
PARAMETER: GI50

According to the records, this molecule N#CC1C(N)=NNC12Nc1ccccc1N2 (stereo not given) displays GI50 of > 100 µM

More entries:
According to the records, this molecule CCOC(=O)c1c(C)n(Cc2ccc(Cl)cc2Cl)c2c1cc1oc(=O)c(=O)n3c(Cc4ccccc4)nc2c13 displays GI50 of 2.73 µM

According to the records, this molecule CCCCC[C@H]1C/C=C2/C(=O)C(Cl)=C[C@@H]2C/C=C\CCCC(=O)O[C@@H](CCCCC)C/C=C2/C(=O)C(Cl)=C[C@@H]2C/C=C\CCCC(=O)O1 displays GI50 of 0.689 µM

According to the records, this molecule O=c1[nH]cnc2c(C3OC(CO)C(O)C3O)scc12 (stereo not given) displays GI50 of > 100 µM

According to the records, this molecule Cc1cn2c(/C=N/N/C(N)=N\N)c(-c3ccc(Cl)c([N+](=O)[O-])c3)nc2s1 displays GI50 of 1.03 µM

---

compounds and their reported TGI
Test system: SNB-19 CNS
Assay: NCI tumour cell line growth inhibition, 48 h

Study these solved cases before continuing.
According to the records, this compound COc1ccc(/C=C2\CCCC3=C2NC(C)=NC3c2ccc(OC)c(OC)c2)cc1OC (centres undefined) displays TGI of > 100 µM

According to the records, this compound CC(=O)c1cccc(NCn2nnc3ccccc32)c1 displays TGI of > 100 µM

According to the records, this compound COC1OC(COC(=O)NCCCCC(=O)C(F)(F)F)C(O)C(O)C1O (centres undefined) displays TGI of > 100 µM

Now, please, on to the next compound.
According to the records, this compound O=[N+]([O-])c1ccc(N=NN2CCCC2)cc1 displays TGI of > 100 µM

---

Tested on: OVCAR-3 ovarian
Assay: NCI tumour cell line growth inhibition, 48 h; in the data active = GI50 below about 0.43 µM; inactive = the rest
Outcome field: choose from active, inactive

Examples with answers:
Task: Which result was noted for this compound in the test: CCCCCCCCCCCCC(=O)[O-].CCCCCCCCCCCCC(=O)[O-].CCCCCCCCCCCCC(=O)[O-].CCCCCCCCCCCCC(=O)[O-].[Mo+2].[Mo+2]
Result: inactive

Task: Which result was noted for this compound in the test: CCOC(=O)c1c(C)n(Cc2ccc(Cl)cc2Cl)c2c1cc1oc(=O)c(=O)n3c(Cc4ccccc4)nc2c13
Result: inactive

Task: Which result was noted for this compound in the test: C[C@H](CS(C)(=O)=O)Nc1ncc2cc(Oc3ccc(F)cc3F)c(=O)n(C)c2n1
Result: inactive

Task: Which result was noted for this compound in the test: Cc1cn2c(/C=N/N/C(N)=N\N)c(-c3ccc(Cl)c([N+](=O)[O-])c3)nc2s1
Result: inactive

Task: Which result was noted for this compound in the test: N#CC1C(N)=NNC12Nc1ccccc1N2 (stereo not drawn)
Result: inactive

Task: Which result was noted for this compound in the test: Fc1ccc(Nc2nc(NCCNc3ccnc4cc(Cl)ccc34)nc(N3CCOCC3)n2)cc1
Result: inactive

More entries:
Task: Which result was noted for this compound in the test: CCc1c2c(nc3cccc(N)c13)-c1cc3c(c(=O)n1C2)COC(=O)[C@]3(O)CC
Result: active

Task: Which result was noted for this compound in the test: NCc1ccc(-n2c(-c3nonc3N)nc3cnccc32)cc1
Result: inactive

---

Test system: TK-10 renal
Assay: NCI tumour cell line growth inhibition, 48 h
PARAMETER: TGI

Study these solved cases before continuing.
TGI of [O-]c1on[n+]2c1c(Nc1ccc(Cl)cc1)nc1ccccc12 , assay on TK-10 renal, is > 100 µM

TGI of CC1OC(c2ccccc2)=CC(OCc2ccccc2)[C@H]1OCc1ccccc1 (stereo partly specified) , assay on TK-10 renal, is > 10 µM

TGI of CC(Oc1ccc(OCC2CCCCC2)cc1)C(=O)N(CCO)CCO (stereo unspecified) , assay on TK-10 renal, is > 100 µM

TGI of COc1ccc2c(C(=O)O)cc3cc(OC)c(OC)cc3c2c1 , assay on TK-10 renal, is > 100 µM

TGI of O=[N+]([O-])c1nccn1CC1OC(n2ccnc2[N+](=O)[O-])C(O)C(O)C1O (stereo unspecified) , assay on TK-10 renal, is > 100 µM

TGI of Cc1cccc(C)c1NC(=O)CCCC(=O)C1CCC/C1=N\NC(=O)C(=O)NN (stereo unspecified) , assay on TK-10 renal, is > 100 µM

TGI of CC(C)(C)OC(=O)CN1CCNCCN(CC(=O)OC(C)(C)C)CC1 , assay on TK-10 renal, is > 100 µM

TGI of O=C1C(=O)N(C2C3CC4CC(C3)CC2C4)C(=O)C(=O)C1c1nc2ccccc2o1 (stereo unspecified) , assay on TK-10 renal, is > 100 µM

More entries:
TGI of COc1ccc(-c2c(C#N)c(S)n(C3OC(CO)C(O)C(O)C3O)c(=O)c2C#N)cc1 (stereo unspecified) , assay on TK-10 renal, is > 100 µM

TGI of CC(=O)C1=C([O-])C(C)OC1=O.CC(=O)C1=C([O-])C(C)OC1=O.[NH-]C1CCCC[C@H]1[NH-].[Pt+4] (stereo unspecified) , assay on TK-10 renal, is > 100 µM

TGI of NCc1ccc(-n2c(-c3nonc3N)nc3cnccc32)cc1 , assay on TK-10 renal, is > 25 µM

---

System: CAKI-1 renal
Assay: NCI tumour cell line growth inhibition, 48 h
compounds and their reported TGI

Study these solved cases before continuing.
According to the records, this compound CC(C)(C)OC(=O)CN1CCNCCN(CC(=O)OC(C)(C)C)CC1 displays TGI of > 100 µM

According to the records, this compound O=C(Cc1ccccc1)N/N=C(\C1=Nc2ccc([N+](=O)[O-])cc2NC1O)C(O)c1ccc([N+](=O)[O-])cc1 (stereo not drawn) displays TGI of > 100 µM

Now, please, on to the next compound.
According to the records, this compound FC(F)(F)C12C34C=CC5(CCC6(C=CC1(CC3)O6)C52C(F)(F)F)O4 (stereo not drawn) displays TGI of > 100 µM
